experiment: Dissociation constant, pKa of compound; assay type: physicochemical

{"Compound": "CN(C(=O)/C=C/c1ccoc1)[C@@H]1CC[C@@]2(O)[C@H]3Cc4ccc(O)c5c4[C@@]2(CCN3CC2CC2)[C@H]1O5 [NALFURAFINE]", "pKa": 9.4}
